Source: patent US6211244A

List of % activity values.
System under test: human calcium receptor (Homo sapiens, UniProt P41180, R990G)
Construct: expressed in transfected cells; host or cells: HEK 293
Sequence (P41180 20-1078 R990G): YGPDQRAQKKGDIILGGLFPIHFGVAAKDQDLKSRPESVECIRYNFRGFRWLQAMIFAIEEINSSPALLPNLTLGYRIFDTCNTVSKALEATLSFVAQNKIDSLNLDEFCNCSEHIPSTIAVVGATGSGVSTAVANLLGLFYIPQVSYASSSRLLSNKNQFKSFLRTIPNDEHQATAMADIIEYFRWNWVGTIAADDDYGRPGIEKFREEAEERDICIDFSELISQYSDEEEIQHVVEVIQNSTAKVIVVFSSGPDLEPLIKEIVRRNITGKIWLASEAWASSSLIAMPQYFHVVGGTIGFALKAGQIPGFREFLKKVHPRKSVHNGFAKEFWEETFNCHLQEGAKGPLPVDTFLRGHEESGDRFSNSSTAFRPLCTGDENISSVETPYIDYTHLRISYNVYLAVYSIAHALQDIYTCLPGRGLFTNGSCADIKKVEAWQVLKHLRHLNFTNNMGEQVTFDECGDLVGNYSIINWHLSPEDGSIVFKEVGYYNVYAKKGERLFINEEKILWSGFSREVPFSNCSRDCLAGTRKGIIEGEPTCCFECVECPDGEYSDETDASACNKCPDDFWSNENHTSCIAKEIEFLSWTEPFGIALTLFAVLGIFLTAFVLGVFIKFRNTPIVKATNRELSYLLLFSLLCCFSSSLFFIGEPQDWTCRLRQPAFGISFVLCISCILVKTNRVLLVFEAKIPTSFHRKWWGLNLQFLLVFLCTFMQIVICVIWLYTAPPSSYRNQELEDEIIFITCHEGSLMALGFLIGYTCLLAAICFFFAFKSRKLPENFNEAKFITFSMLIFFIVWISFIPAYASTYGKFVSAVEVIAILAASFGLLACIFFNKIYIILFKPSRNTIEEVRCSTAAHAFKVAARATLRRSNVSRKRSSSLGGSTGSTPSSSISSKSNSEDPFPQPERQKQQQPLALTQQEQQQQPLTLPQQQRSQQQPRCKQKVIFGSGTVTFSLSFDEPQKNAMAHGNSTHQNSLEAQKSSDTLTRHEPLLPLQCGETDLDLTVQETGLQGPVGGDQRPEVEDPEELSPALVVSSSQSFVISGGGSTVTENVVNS
Measurement notes: increases in [Ca^2+ ]i in HEK-293 cells expressing the human calcium receptor (fura-2 loaded HEK 293/pHuPCaR4.0 cells), % activity
Type: cell-based
Protocol conditions: 3300 ng/mL
All answers are understood in %, so give the number only.

// % activity lookup, key: CC(NCCCc1ccccc1Cl)c1cccc(Cl)c1 (stereo not drawn) [Compound 24O]
137

// % activity lookup, key: COc1cccc([C@@H](C)NCC(C)c2ccccc2)c1 (stereo partly drawn) [Compound 25N]
94

// % activity lookup, key: COc1ccc(CNC(C)c2ccccc2Br)cc1C (stereo not drawn) [Compound 23P]
125

###

System under test: human calcium receptor (Homo sapiens, UniProt P41180, R990G)
Construct: expressed in transfected cells; host or cells: HEK 293
Measurement notes: increases in [Ca^2+ ]i in HEK-293 cells expressing the human calcium receptor (fura-2 loaded HEK 293/pHuPCaR4.0 cells), % activity
Type: cell-based
Protocol conditions: 3300 ng/mL
Property label: % activity
Show the value, then the unit it is measured in.

# Compound, % activity
rows = [
    ("COc1cccc([C@@H](C)NCCc2ccccc2)c1 [Compound 25Q]", "116%"),
]

API: value(readout= % activity, system= human calcium receptor (Homo sapiens, UniProt P41180, R990G), query= COc1ccc(CNCc2cccc3ccccc23)cc1C [Compound 17Y] )
109%

API: value(readout= % activity, system= human calcium receptor (Homo sapiens, UniProt P41180, R990G), query= CCOc1ccc(CN[C@H](C)c2cccc3ccccc23)cc1C [Compound 25A] )
122%

API: value(readout= % activity, system= human calcium receptor (Homo sapiens, UniProt P41180, R990G), query= COc1cccc([C@H](C)NC[C@H](C)C=Cc2ccccc2)c1 [Compound 25I] )
119%

API: value(readout= % activity, system= human calcium receptor (Homo sapiens, UniProt P41180, R990G), query= COc1cccc([C@@H](C)NCC=Cc2c(C)cc(C)cc2C)c1 [Compound 12D] )
128%

API: value(readout= % activity, system= human calcium receptor (Homo sapiens, UniProt P41180, R990G), query= CC(NCc1cccc(OCc2ccccc2)c1)c1cccc2ccccc12 (stereo not shown) [Compound 12J] )
131%

API: value(readout= % activity, system= human calcium receptor (Homo sapiens, UniProt P41180, R990G), query= COc1ccc(CNC(C)c2ccccc2)cc1C (stereo not shown) [Compound 23G] )
127%
